I'd appreciate it if you could supply EC50 values for the items below.
- STUDY TARGET: Guanine nucleotide-binding protein G(o) subunit alpha (Homo sapiens, UniProt P09471)
- Sequence (P09471 whole entry): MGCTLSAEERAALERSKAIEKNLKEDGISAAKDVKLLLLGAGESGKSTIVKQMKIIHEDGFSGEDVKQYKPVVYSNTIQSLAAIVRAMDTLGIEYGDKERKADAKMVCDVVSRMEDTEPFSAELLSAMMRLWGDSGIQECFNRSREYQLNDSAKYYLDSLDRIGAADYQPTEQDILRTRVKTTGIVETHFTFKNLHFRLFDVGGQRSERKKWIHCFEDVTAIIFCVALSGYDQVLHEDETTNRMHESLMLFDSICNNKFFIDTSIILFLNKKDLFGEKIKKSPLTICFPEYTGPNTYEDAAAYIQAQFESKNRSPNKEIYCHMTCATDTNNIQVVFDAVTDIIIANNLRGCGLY
- ASSAY PROTOCOL: Concentration required to stimulate binding of [35S]GTP-gamma-S, with G alpha o1
Answers are plain numbers, in µM.

Answer with the recorded EC50 for the molecule listed here: CCCCCCCCCCCCNC(=O)C(N)CCCCN (stereo not drawn)
28.8

# per-item lookup of EC50; items listed below
1. CCCCCCCCCCCCCCCN1CCC(CCC2CCNCC2)CC1
2. CCCCCCCCCCCCCCCCCN1CCC(C2CCNCC2)CC1
3. CCCCCCCCCCCCCCCNC(=O)C1CCN(CCN)CC1
4. CCCCCCCCCCCCCCC(=O)N1CCC(CCC2CCN(C)CC2)CC1
5. CCCCCCCCCCCCCCC(=O)N1CCC(N)CC1
6. CCCCCCCCCCCCCCC(=O)NC1CCNCC1
7. CCCCCCCCCCCCCCCCC(=O)N1CCC(C2CCN(C)CC2)CC1

1: 10.5; 2: 13.4; 3: 16.9; 4: 12.5; 5: 25.8; 6: 22.7; 7: 21.4

Quick request: EC50 for each listed item, please.
1. CCCCCCCCCCCCCCC(=O)N1CCN(N)CC1
2. CCCCCCCCCCCCCCCNC(=O)C1CCN(CCNC=O)CC1
3. CCCCCCCCCCCCCCC(=O)N1CCC(C2CCNCC2)CC1
4. CCCCCCCCCCCCCCCN1CCN(N)CC1
5. CCCCCCCCCCCCCCC(=O)NN1CCNCC1

1: 374; 2: 5.5; 3: 5.6; 4: 3.7; 5: 23.4

###

- STUDY TARGET: Guanine nucleotide-binding protein G(i) subunit alpha-3 (Homo sapiens)
- Sequence (P08754 whole entry): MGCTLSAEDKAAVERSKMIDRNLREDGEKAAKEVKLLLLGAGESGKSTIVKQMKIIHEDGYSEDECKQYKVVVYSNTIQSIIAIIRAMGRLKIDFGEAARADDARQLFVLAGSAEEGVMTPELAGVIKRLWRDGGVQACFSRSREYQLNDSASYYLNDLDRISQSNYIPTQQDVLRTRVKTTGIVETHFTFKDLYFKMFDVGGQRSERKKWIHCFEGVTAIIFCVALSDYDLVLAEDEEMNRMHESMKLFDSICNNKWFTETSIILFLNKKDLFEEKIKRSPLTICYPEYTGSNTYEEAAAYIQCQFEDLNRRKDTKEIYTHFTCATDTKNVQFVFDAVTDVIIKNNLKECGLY
- ASSAY PROTOCOL: Percent stimulation of [35S]GTP-gamma-S, binding to G alpha i3 at 5E-5 M of basal for 30 minutes
- Assay type: functional
QUANTITY: Stimulation
Param answer (str): number followed by unit.

Completed entries (count: 5):
Annotate the compound CCCCCCCCCCCCCN1CCC(C2CCNCC2)CC1 with its measured Stimulation.
406%

Provide one value: measured Stimulation of COc1ccccc1CN1CCC(C2CCNCC2)CC1
391%

Read off the recorded Stimulation for CCCCCCCCCCCCNC(=O)C(N)CCCCN (stereo not given)
1030%

Specify measured Stimulation for CCCCCCCCCCCCCCC(=O)N1CCN(N)CC1 .
211%

For CCCCCCCCCCCCCCCN1CCC(C2CCNCC2)CC1 , write its Stimulation.
1640%

For the 4 compounds below, give their Stimulation values.
1. CCCCCCCCCCCCCCCN1CCC(N)CC1
2. CCCCCCCCCCCCC(=O)N1CCC(C2CCNCC2)CC1
3. CCCCCCCCCCCCCCC(=O)N1CCC(CCC2CCN(C)CC2)CC1
4. CCCCCCCCCCCCCCC(=O)N1CCC(C2CCNCC2)CC1

["3780%", "1180%", "815%", "1560%"]

I'm hoping you can list Stimulation for every compound here, please.
1. CCCCCCCCCCCCCCCNC(=O)C1CCNCC1
2. CCCCCCCCCCCCCCC(=O)N1CCC(C2CCN(C)CC2)CC1
3. CCCCCCCCCCCCCCCNCC1CCNCC1
4. CCCCCCCCCCCCCN1CCC(C2CCN(C)CC2)CC1

["986%", "265%", "1930%", "435%"]

// each listed compound needs a value for Stimulation
1. CCCCCCCCCCCCCCCCC(=O)N1CCC(C2CCN(C)CC2)CC1
2. CCCCCCCCCCCCCCC(=O)NC1CCNCC1
3. CCCCCCCCCCCCCCC(=O)NN1CCNCC1

["181%", "1290%", "3690%"]

Please supply Stimulation for each of the following items, keeping them in order.
1. CCCCCCCCCCCCCCCCC(=O)N1CCC(C2CCNCC2)CC1
2. CCCCCCCCCCCCCCC(=O)N1CCC(CCC2CCNCC2)CC1
3. CCCCCCCCCCCCC(=O)N1CCC(C2CCN(C)CC2)CC1
4. CCCCCCCCCCCCCCCCCN1CCC(C2CCN(C)CC2)CC1

424%
1090%
75%
97%
